meta.source: patent US20200131274A1

// values below are reported EC50
target: T1, cynomolgus PSMA, full-length, on CHO cells (cynomolgus, UniProt A0A2K5VNZ0 1-750); assay: FMAT direct cell binding, CHO cyno PSMA cells
T1 construct: whole, on cells; also called cynoPSMA; cyno PSMA

* single VH domain antibody 2.18 (VHH, Human single VH domain antibody (Humabody); C-terminal His tag, residues not tied) VHH: EVQLVESGGGVVQPGRSLRLSCAASGFSFSGYGQHWVRQAPGKGLEWVAYISYDASNKYYADNVKGRFTISRDNSKNTLYLQMNSLRAEDTAVYYCAKDPAWGLRLGESSSYDFDIWGQGTMVTVSS | 0.337 nM
* single VH domain antibody 2.17 (VHH, Human single VH domain antibody (Humabody); C-terminal His tag, residues not tied) VHH: EVQLVESGGGVVQPGRSLRLSCAASGFSFSGYGMHWVRQAPGKGLEWVAYISYDASNKYYADNVKGRFTISRDNSKNTLYLQMNSLRAEDTAVYYCAKDPAWGLRLGESSSYDFDIWGQGTMVTVSS | 0.308 nM
* single VH domain antibody 1.18 (VHH, Human single VH domain antibody (Humabody)) VHH: EVQLLESGGGLVQPGGSLRLSCAASGFSFSSYALSWVRQAPGKGLEWVSSIGENNATTDYAASVKGRFTISRDNSKNTLYLQMNSLRVEDTAVYYCVKDGVHWGQGTLVTVSS | 0.124 nM

For single VH domain antibody 1.8 (VHH, Human single VH domain antibody (Humabody)) VHH: EVQLLESGGGLVQPGGSLRLSCAASGFSFSSYAMSWVRQAPGKGLEWVSSIGENDGTTDYADSVKGRFTISRDNSKNTLYLQMNSLRVEDTAVYYCVKDGVHWGQGTLVTVSS , what is its reported EC50?
0.31 nM
